- tested.system: UniProt Q99497
- Sequence (Q99497 whole entry): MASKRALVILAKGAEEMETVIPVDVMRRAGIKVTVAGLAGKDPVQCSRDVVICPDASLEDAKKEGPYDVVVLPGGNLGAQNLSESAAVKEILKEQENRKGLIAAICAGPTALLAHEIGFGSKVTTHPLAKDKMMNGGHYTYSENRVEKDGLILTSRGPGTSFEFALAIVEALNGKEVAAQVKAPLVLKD
- test.name: DiFMUAc PARK7 activity assay
- Format: biochemical
- Set-up: GST (N, cleaved yes); made in house; host or cells: E. coli BL21(DE3) Rosetta2
- details: 12.5 µM compound, PARK7 0.1 μM, 2 h preincubation, DiFMUAc 300 μM; read-out: DiFMuAc assay %Inhibiton (12.5 µM)
measurement.kind: inhibition at 12.5 µM (%)

molecule=CC(C)(C)c1ccc(NC(=O)CCl)cc1 measurement_kind="inhibition at 12.5 µM" observed_result=87.1
molecule="CCC(C)c1ccc(NC(=O)CCl)cc1 (stereo not drawn)" measurement_kind="inhibition at 12.5 µM" observed_result=95.8
molecule=O=C(CCl)C1CCOCC1 measurement_kind="inhibition at 12.5 µM" observed_result=94.3
molecule="CC1=NOC(=O)C1CC(=O)O (stereo not drawn)" measurement_kind="inhibition at 12.5 µM" observed_result=92.2
molecule="CC1CCc2ccccc2N1C(=O)CCl (stereo not drawn)" measurement_kind="inhibition at 12.5 µM" observed_result=80.5
molecule=O=C(O)c1csc(C(=O)CCl)c1 measurement_kind="inhibition at 12.5 µM" observed_result=97.9
molecule=O=C(CCl)c1ccc(F)c(C(=O)CCl)c1 measurement_kind="inhibition at 12.5 µM" observed_result=98
molecule="CC1CCC(N(C)C(=O)CCl)CC1 (stereo not drawn)" measurement_kind="inhibition at 12.5 µM" observed_result=81.8
molecule=CCN(c1ccc(NC(=O)CCl)cc1)C(C)C measurement_kind="inhibition at 12.5 µM" observed_result=81.4
